The values you see were collected from ChEMBL document CHEMBL1817647.

Reported values of clearance for individual entries
Assay: Blood clearance in rat
Type: ADME, organism-based
Answer format: numeric, mL/min/kg implied, no suffix.

>  <Molecule>
Cc1cc(C)n(CC23CNCC[C@]2(c2ccc(Cl)c(Cl)c2)C3)n1 (single isomer, unassigned)

>  <Assay readout>
clearance

>  <Endpoint result>
52

$$$$

Consider the additional molecule presented here.
Look up clearance for this molecule: Cc1nc(C)n(CC23CNCC[C@]2(c2ccc(Cl)c(Cl)c2)C3)n1 (single isomer, unassigned; enantiomer 1)
63

====

Molecular target: Sodium-dependent serotonin transporter (Homo sapiens)
Sequence (P31645 whole entry): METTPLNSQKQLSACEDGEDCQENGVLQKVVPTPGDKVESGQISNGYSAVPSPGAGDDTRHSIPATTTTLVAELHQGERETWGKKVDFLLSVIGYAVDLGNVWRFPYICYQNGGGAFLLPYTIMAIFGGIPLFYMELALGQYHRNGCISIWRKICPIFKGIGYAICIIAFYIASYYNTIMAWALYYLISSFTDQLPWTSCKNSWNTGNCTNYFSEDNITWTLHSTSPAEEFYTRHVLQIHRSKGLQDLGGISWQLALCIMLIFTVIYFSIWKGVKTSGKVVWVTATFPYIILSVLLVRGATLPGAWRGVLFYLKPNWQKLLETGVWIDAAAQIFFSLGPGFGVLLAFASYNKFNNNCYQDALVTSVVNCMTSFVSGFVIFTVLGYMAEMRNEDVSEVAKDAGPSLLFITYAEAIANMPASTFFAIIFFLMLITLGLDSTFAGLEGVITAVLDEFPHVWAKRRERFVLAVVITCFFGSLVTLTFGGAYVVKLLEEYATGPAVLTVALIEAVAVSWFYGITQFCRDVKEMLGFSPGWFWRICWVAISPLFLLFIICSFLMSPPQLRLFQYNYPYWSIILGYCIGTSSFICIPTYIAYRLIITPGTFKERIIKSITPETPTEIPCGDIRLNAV
Test: Displacement of [3H]citalopram from human recombinant SERT scintillation proximity assay
Response field class: string, computed from recorded Ki by ranges low interval: < 0.6 nM; middle interval: ≥ 0.6 nM and < 3 nM; high interval: ≥ 3 nM

Past entries and their recorded results:
>  <Compound>
N#Cc1ccn(CC23CNCC[C@]2(c2ccc(Cl)c(Cl)c2)C3)c1 (single isomer, unassigned; enantiomer 1)

>  <Cat>
middle interval

$$$$
>  <Compound>
N#Cc1ccn(C[C@@]23CNCC[C@]2(c2ccc(Cl)c(Cl)c2)C3)n1 (racemic)

>  <Cat>
middle interval

$$$$
>  <Compound>
Cc1cc(C)n(C[C@@]23CNCC[C@]2(c2ccc(Cl)c(Cl)c2)C3)c1 (racemic)

>  <Cat>
middle interval

$$$$
>  <Compound>
Cc1cc(C(F)(F)F)nn1C[C@@]12CNCC[C@]1(c1ccc(Cl)c(Cl)c1)C2 (racemic)

>  <Cat>
middle interval

$$$$

For the record Cc1ccnn1CC12CNCC[C@]1(c1ccc(Cl)c(Cl)c1)C2 (stereo in doubt; 16) , report the class its Ki corresponds to.
high interval

Also Cc1ccc(C)n1C[C@@]12CNCC[C@]1(c1ccc(Cl)c(Cl)c1)C2 (racemic) ?
middle interval

Repeat for the following compound: N#Cc1cccn1C[C@@]12CNCC[C@]1(c1ccc(Cl)c(Cl)c1)C2 (racemic)
middle interval

Can you handle Cc1csc([C@@]23CNCC[C@]2(c2ccc(Cl)c(Cl)c2)C3)n1 (racemic) next?
low interval

Try Clc1ccc([C@]23CCNCC2(Cn2ncc4ccccc42)C3)cc1Cl (stereo partly drawn) next.
low interval

Queued: Cc1csc(C[C@@]23CNCC[C@]2(c2ccc(Cl)c(Cl)c2)C3)n1 (racemic)
low interval

Similarly, Cc1cc([C@@]23CNCC[C@]2(c2ccc(Cl)c(Cl)c2)C3)no1 (racemic) ?
high interval

Next entry: Cc1nc(C)n(CC23CNCC[C@]2(c2ccc(Cl)c(Cl)c2)C3)n1 (stereo in doubt; 38)
high interval

Further, for N#Cc1ccnn1C[C@@]12CNCC[C@]1(c1ccc(Cl)c(Cl)c1)C2 (racemic) ?
high interval

Try this compound too: Clc1ccc([C@]23CCNC[C@@]2(Cn2cccc2)C3)cc1Cl (racemic)
low interval

Item: Clc1ccc([C@]23CCNCC2(Cn2ccc4ccccc42)C3)cc1Cl (stereo partly drawn)
middle interval

Same read-out for Cc1csc(C23CNCC[C@]2(c2ccc(Cl)c(Cl)c2)C3)n1 (single isomer, unassigned; enantiomer 1) ?
low interval

Now try Cc1cnc([C@@]23CNCC[C@]2(c2ccc(Cl)c(Cl)c2)C3)o1 (racemic) .
high interval

Subsequent entry: Cc1nc(C)n(C[C@@]23CNCC[C@]2(c2ccc(Cl)c(Cl)c2)C3)n1 (racemic)
high interval

====

# reported Ki; entries follow
Target: Sodium-dependent dopamine transporter (Homo sapiens, UniProt Q01959)
Sequence (Q01959 whole entry): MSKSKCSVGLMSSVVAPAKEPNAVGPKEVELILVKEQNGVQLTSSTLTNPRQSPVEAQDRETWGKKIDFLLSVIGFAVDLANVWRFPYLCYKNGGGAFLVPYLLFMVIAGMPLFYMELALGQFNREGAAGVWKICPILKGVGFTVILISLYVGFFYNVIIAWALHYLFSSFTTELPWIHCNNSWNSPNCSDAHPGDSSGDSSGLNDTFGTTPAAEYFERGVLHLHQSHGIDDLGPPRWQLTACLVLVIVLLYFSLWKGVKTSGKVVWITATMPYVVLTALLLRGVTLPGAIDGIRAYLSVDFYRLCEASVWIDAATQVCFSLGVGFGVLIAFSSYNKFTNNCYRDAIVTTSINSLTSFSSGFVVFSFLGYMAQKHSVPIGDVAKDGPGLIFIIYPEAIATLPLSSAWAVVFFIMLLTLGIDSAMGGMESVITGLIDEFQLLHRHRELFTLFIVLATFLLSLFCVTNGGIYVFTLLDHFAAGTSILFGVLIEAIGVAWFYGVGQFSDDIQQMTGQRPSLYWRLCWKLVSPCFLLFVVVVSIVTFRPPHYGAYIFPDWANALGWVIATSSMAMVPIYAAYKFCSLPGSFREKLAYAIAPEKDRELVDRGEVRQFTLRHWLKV
Test: Displacement of [3H]WIN-35428 from human recombinant DAT by scintillation proximity assay
The reply should be a number in nM, with the unit left off.

Record request: Ki value, item CC(C)c1nnnn1C[C@@]12CNCC[C@]1(c1ccc(Cl)c(Cl)c1)C2 (racemic)
63.1

Param item: Cc1cc(C)n(CC23CNCC[C@]2(c2ccc(Cl)c(Cl)c2)C3)n1 (single isomer, unassigned)
3.16

Let us now turn to Cc1cc(C(F)(F)F)n(C[C@@]23CNCC[C@]2(c2ccc(Cl)c(Cl)c2)C3)n1 (racemic)
1.26

====

Molecular target: UniProt:P23975
Sequence (P23975 whole entry): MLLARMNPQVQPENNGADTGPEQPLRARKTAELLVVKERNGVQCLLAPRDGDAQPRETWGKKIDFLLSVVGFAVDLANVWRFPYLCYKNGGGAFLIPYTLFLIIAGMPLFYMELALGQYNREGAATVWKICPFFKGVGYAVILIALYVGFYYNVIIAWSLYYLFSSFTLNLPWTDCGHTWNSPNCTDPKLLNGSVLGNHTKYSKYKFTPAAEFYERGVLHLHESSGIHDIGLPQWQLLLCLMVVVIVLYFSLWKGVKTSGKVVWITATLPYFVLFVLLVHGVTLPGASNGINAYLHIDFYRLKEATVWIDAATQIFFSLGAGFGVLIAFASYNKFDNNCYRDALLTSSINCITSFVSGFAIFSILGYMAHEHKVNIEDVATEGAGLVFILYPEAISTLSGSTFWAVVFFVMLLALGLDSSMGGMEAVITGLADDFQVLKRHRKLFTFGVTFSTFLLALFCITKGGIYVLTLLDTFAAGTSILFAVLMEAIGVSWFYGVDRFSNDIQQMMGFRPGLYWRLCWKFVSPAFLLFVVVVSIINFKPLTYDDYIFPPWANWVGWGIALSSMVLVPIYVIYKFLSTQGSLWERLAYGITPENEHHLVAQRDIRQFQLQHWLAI
Experiment: Displacement of [3H]nisoxetine from human recombinant NET by scintillation proximity assay
// Ki lookup, one value per entry
# output: bare number, implied unit nM

>  <Molecule>
Cc1ccn(CC23CNCC[C@]2(c2ccc(Cl)c(Cl)c2)C3)n1 (stereo in doubt)

>  <Endpoint result>
3.16

$$$$
>  <Molecule>
Cc1cc(C(F)(F)F)n(C[C@@]23CNCC[C@]2(c2ccc(Cl)c(Cl)c2)C3)n1 (racemic)

>  <Endpoint result>
10

$$$$
>  <Molecule>
Cc1ccnn1CC12CNCC[C@]1(c1ccc(Cl)c(Cl)c1)C2 (stereo in doubt; 16)

>  <Endpoint result>
316

$$$$
>  <Molecule>
Cc1cnn(C[C@@]23CNCC[C@]2(c2ccc(Cl)c(Cl)c2)C3)c1 (racemic)

>  <Endpoint result>
79.4

$$$$
>  <Molecule>
Cc1csc([C@@]23CNCC[C@]2(c2ccc(Cl)c(Cl)c2)C3)n1 (racemic)

>  <Endpoint result>
0.398

$$$$
>  <Molecule>
N#Cc1ccnn1C[C@@]12CNCC[C@]1(c1ccc(Cl)c(Cl)c1)C2 (racemic)

>  <Endpoint result>
31.6

$$$$
>  <Molecule>
Cc1ccn(CC23CNCC[C@]2(c2ccc(Cl)c(Cl)c2)C3)c1 (some centres undefined)

>  <Endpoint result>
39.8

$$$$
>  <Molecule>
CC(C)c1nnn(C[C@@]23CNCC[C@]2(c2ccc(Cl)c(Cl)c2)C3)n1 (racemic)

>  <Endpoint result>
398

$$$$

What measured Ki goes with Clc1ccc([C@]23CCNCC2(Cn2ccc4ccccc42)C3)cc1Cl (some centres undefined) ?
63.1

====

Experiment: Hepatic extraction ratio in rat
Conditions: in vivo
Assay readout: hepatic extraction ratio
Could you keep your reply to the number by itself?

# lookup: hepatic extraction ratio of Cc1nc(C)n(CC23CNCC[C@]2(c2ccc(Cl)c(Cl)c2)C3)n1 (single isomer, unassigned; enantiomer 1)
0.8

====

Molecular target: Sodium-dependent serotonin transporter (Homo sapiens)
Assay: Displacement of [3H]citalopram from human recombinant SERT scintillation proximity assay
Assay readout: pKi
pKi (log units): -log10 of the concentration in mol/L.

Below, each entry is followed by its recorded pKi result.
>  <Compound>
Cc1ncoc1C[C@@]12CNCC[C@]1(c1ccc(Cl)c(Cl)c1)C2 (racemic)

>  <pKi>
8.50

$$$$
>  <Compound>
Clc1ccc([C@]23CCNC[C@@]2(Cn2cncn2)C3)cc1Cl (racemic)

>  <pKi>
8.40

$$$$
>  <Compound>
Cc1nc(C)n(CC23CNCC[C@]2(c2ccc(Cl)c(Cl)c2)C3)n1 (single isomer, unassigned; enantiomer 1)

>  <pKi>
8.70

$$$$
>  <Compound>
Clc1ccc([C@]23CCNCC2(Cn2cc4ccccc4n2)C3)cc1Cl (some centres not stated)

>  <pKi>
9.70

$$$$

State its pKi on Sodium-dependent serotonin transporter (Homo sapiens): CC(C)c1nnn(C[C@@]23CNCC[C@]2(c2ccc(Cl)c(Cl)c2)C3)n1 (racemic)
9.10

Okay, and Cc1cnn(C[C@@]23CNCC[C@]2(c2ccc(Cl)c(Cl)c2)C3)c1 (racemic) ?
9.10

# iterate: Cc1ccn(CC23CNCC[C@]2(c2ccc(Cl)c(Cl)c2)C3)c1 (some centres not stated)
9.30

Same lookup for Cc1ccn(CC23CNCC[C@]2(c2ccc(Cl)c(Cl)c2)C3)n1 (single isomer, unassigned; enantiomer 1) , please.
7.70

Note, next up: Cc1cc(C)n(C[C@@]23CNCC[C@]2(c2ccc(Cl)c(Cl)c2)C3)n1 (racemic)
9.40

Check FC(F)(F)c1ccnn1C[C@@]12CNCC[C@]1(c1ccc(Cl)c(Cl)c1)C2 (racemic) too.
8.70

Let us now turn to Cc1cc(C)n(CC23CNCC[C@]2(c2ccc(Cl)c(Cl)c2)C3)n1 (single isomer, unassigned)
9.70

What about Cc1csc(C23CNCC[C@]2(c2ccc(Cl)c(Cl)c2)C3)n1 (stereo in doubt; 7) ?
7.80

// repeat for Cc1noc([C@@]23CNCC[C@]2(c2ccc(Cl)c(Cl)c2)C3)n1 (racemic) and report
8.10

====

Target: Sodium-dependent serotonin transporter (Homo sapiens)
Experiment: Displacement of [3H]citalopram from human recombinant SERT scintillation proximity assay
In this section, each of the compounds is paired with its reported pKi.
pKi field: float, defined as -log10 of concentration (mol/L).

Suppose we examine the compound CC(C)(C)c1ccn(C[C@@]23CNCC[C@]2(c2ccc(Cl)c(Cl)c2)C3)n1 (racemic) ; what pKi value has been reported?
9.60

Moving on to the next compound: Cc1ccn(CC23CNCC[C@]2(c2ccc(Cl)c(Cl)c2)C3)n1 (stereo in doubt)
9.60

// next record CC(C)c1nnnn1C[C@@]12CNCC[C@]1(c1ccc(Cl)c(Cl)c1)C2 (racemic)
7.20

Next entry: Cc1cc(C(F)(F)F)n(C[C@@]23CNCC[C@]2(c2ccc(Cl)c(Cl)c2)C3)n1 (racemic)
9.10
